# tgt: mutant EGFR kinase type L858R (Homo sapiens, UniProt P00533, L858R)
# Sequence (P00533 25-1210 L858R): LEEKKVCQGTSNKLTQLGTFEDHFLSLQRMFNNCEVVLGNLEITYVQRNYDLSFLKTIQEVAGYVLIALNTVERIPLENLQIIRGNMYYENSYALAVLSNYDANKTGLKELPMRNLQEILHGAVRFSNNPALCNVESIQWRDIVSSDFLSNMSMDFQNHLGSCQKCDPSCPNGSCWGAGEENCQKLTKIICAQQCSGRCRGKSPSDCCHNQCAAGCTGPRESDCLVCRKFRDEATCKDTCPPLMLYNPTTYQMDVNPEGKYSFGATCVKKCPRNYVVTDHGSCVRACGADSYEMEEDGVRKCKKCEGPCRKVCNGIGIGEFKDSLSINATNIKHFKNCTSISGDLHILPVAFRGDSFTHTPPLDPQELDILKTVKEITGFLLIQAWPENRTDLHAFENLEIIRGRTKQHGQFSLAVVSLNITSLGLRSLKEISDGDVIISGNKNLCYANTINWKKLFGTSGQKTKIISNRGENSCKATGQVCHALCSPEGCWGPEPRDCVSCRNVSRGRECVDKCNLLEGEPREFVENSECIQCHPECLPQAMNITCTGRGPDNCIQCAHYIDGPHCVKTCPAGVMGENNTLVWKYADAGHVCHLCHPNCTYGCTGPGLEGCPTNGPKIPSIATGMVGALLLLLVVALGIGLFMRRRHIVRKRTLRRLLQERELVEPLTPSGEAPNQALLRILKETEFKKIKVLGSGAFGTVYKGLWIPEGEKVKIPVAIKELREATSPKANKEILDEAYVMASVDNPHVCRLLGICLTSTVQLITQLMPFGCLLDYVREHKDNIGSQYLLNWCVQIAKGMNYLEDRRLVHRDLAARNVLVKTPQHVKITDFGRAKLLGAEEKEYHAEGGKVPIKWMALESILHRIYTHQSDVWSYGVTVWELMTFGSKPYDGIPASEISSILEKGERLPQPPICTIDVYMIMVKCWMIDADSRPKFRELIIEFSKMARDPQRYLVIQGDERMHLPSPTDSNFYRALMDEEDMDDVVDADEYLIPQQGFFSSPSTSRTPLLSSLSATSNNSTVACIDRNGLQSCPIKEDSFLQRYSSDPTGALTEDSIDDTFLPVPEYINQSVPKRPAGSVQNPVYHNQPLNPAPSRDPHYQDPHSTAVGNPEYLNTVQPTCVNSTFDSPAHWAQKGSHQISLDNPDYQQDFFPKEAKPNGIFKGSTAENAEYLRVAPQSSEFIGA
# procedure summary: In vitro kinase inhibition assay (Kinase-Glo Max luminescence)
# cond: IC50 (mean ± SEM) (µM) EGFR, mean of three values ± SEM
recorded metric: IC50 (µM)

Examples with their reported IC50 follow.
Query Nn1c(SCc2cn([C@@H]3OC[C@@H](O)[C@H](O)[C@H]3O)nn2)nc2sc3c(c2c1=O)CCC3 [Compound 7] yields IC50 of 0.17

Query C#CCSc1nc2sc3c(c2c(=O)n1N)CCC3 [Compound 2] yields IC50 of 0.5

Query CC(=O)OCC1OC(OCc2cn(CCSc3nc4sc5c(c4c(=O)n3N)CCC5)nn2)C(OC(C)=O)C(OC(C)=O)C1OC(C)=O (stereo not drawn) [Compound 14] yields IC50 of 0.013

Query CC(=O)OCC1OC(OCc2cn(CCCCSc3nc4sc5c(c4c(=O)n3N)CCC5)nn2)C(OC(C)=O)C(OC(C)=O)C1OC(C)=O (stereo not drawn) [Compound 17] yields IC50 of 0.02

(1) CC(=O)OC1COC(OCc2cn(CCSc3nc4sc5c(c4c(=O)n3N)CCC5)nn2)C(OC(C)=O)C1OC(C)=O (stereo not drawn) [Compound 15]
(2) CC(=O)OC1COC(n2cc(CSc3nc4sc5c(c4c(=O)n3N)CCC5)nn2)C(OC(C)=O)C1OC(C)=O (stereo not drawn) [Compound 5]
**Query** Which entry has a larger number for IC50, 1 or 2 ? Lab note: record the label of whichever item you select.
**Result** 2
(2: 0.13 µM, 1: 0.017 µM)
